Target: human platelet heparanase (Homo sapiens, UniProt Q9Y251)
Construct: 10 ng of purified human platelet heparanase; from tissue; host or cells: human platelets
Sequence (Q9Y251 158-543 limits assumed): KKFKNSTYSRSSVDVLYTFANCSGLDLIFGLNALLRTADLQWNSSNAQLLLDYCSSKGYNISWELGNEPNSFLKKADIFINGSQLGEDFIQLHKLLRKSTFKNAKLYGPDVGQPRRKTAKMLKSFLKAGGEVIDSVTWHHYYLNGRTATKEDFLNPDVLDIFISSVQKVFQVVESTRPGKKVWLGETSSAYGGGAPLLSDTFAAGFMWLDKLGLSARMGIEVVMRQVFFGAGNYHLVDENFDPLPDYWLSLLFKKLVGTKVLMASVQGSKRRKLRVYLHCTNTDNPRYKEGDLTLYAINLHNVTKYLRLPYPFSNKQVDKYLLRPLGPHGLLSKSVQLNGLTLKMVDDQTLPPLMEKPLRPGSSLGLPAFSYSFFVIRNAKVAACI
Sequence (Q9Y251 36-109 limits assumed): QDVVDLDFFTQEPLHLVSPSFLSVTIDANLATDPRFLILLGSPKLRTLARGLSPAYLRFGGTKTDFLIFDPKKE
Experiment: Heparanase inhibition, 3H-radiolabelled HS cleavage assay
Format: biochemical
Conditions: read-out: Inhibition (%) at 10 μg/ml
Binary call on inhibition at 10 µg/mL: Condition met from 40% upward, Condition not met beneath that.

O=S(=O)(O)O[C@H]1[C@H](OS(=O)(=O)O)[C@@H](N(CCN([C@H]2C=C[C@@H](OS(=O)(=O)O)[C@@H](OS(=O)(=O)O)[C@@H]2OS(=O)(=O)O)[C@H]2C=C[C@@H](OS(=O)(=O)O)[C@@H](OS(=O)(=O)O)[C@@H]2OS(=O)(=O)O)[C@H]2C=C[C@@H](OS(=O)(=O)O)[C@@H](OS(=O)(=O)O)[C@@H]2OS(=O)(=O)O)C=C[C@H]1OS(=O)(=O)O [Compound 4f] : Condition met
O=S(=O)(O)O[C@H]1[C@H](OS(=O)(=O)O)[C@@H](N(CCCCCCCN([C@H]2C=C[C@@H](OS(=O)(=O)O)[C@@H](OS(=O)(=O)O)[C@@H]2OS(=O)(=O)O)[C@H]2C=C[C@@H](OS(=O)(=O)O)[C@@H](OS(=O)(=O)O)[C@@H]2OS(=O)(=O)O)[C@H]2C=C[C@@H](OS(=O)(=O)O)[C@@H](OS(=O)(=O)O)[C@@H]2OS(=O)(=O)O)C=C[C@H]1OS(=O)(=O)O [Compound 4h] : Condition not met
O=S(=O)(O)O[C@H]1[C@H](OS(=O)(=O)O)[C@@H](N(CCCN([C@H]2C=C[C@@H](OS(=O)(=O)O)[C@@H](OS(=O)(=O)O)[C@@H]2OS(=O)(=O)O)[C@H]2C=C[C@@H](OS(=O)(=O)O)[C@@H](OS(=O)(=O)O)[C@@H]2OS(=O)(=O)O)[C@H]2C=C[C@@H](OS(=O)(=O)O)[C@@H](OS(=O)(=O)O)[C@@H]2OS(=O)(=O)O)C=C[C@H]1OS(=O)(=O)O [Compound 4a] : Condition not met
O=S(=O)(O)O[C@H]1[C@H](OS(=O)(=O)O)[C@@H](N(CCCCN([C@H]2C=C[C@@H](OS(=O)(=O)O)[C@@H](OS(=O)(=O)O)[C@@H]2OS(=O)(=O)O)[C@H]2C=C[C@@H](OS(=O)(=O)O)[C@@H](OS(=O)(=O)O)[C@@H]2OS(=O)(=O)O)[C@H]2C=C[C@@H](OS(=O)(=O)O)[C@@H](OS(=O)(=O)O)[C@@H]2OS(=O)(=O)O)C=C[C@H]1OS(=O)(=O)O [Compound 4g] : Condition met
